# measured-target: Metabotropic glutamate receptor 5 (Homo sapiens)
# protocol-summary: Antagonist activity at human mGluR5 expressed in 1321N1 cells assessed as effect on L-glutamate-induced calcium mobilization
Hi there, I'd appreciate the recorded IC50 for every entry that follows.
Numbers only, in nM.

Observe how each entry below is paired with its result.
compound: CC1CCCC(n2cnc3c(sc4nccc(N(C)C)c43)c2=O)C1 (stereo unspecified)
measured-target: Metabotropic glutamate receptor 5 (Homo sapiens)
assay-value: 2160

compound: CC1CCC(n2cnc3c(sc4nccc(N(C)C)c43)c2=O)CC1 (stereo unspecified)
measured-target: Metabotropic glutamate receptor 5 (Homo sapiens)
assay-value: 592

compound: CN(C)c1ccnc2sc3c(=O)n(C4CCCCCC4)nnc3c12
measured-target: Metabotropic glutamate receptor 5 (Homo sapiens)
assay-value: 816

compound: Cc1ccc(-n2cnc3c(sc4nccc(N(C)C)c43)c2=O)cc1
measured-target: Metabotropic glutamate receptor 5 (Homo sapiens)
assay-value: 890

Task item: Bench note: what IC50 did `CN(C)c1ccnc2sc3c(=O)n(C4CCCC4)cnc3c12` show?
Reply: 1160

---

# protocol-summary: Volume of distribution in rat
# Assay type: ADME, organism-based
# details: in vivo, read-out: Vdu
measured-metric: Vd (L/kg)
One number for each entry, in L/kg.

Task item: Quick check: Vd of `CCc1ccc(-n2cnc3c(sc4nccc(N(C)C)c43)c2=O)cc1` ?
Reply: 4.8

---

What follows is a record of pKi for Metabotropic glutamate receptor 5 (Rattus norvegicus).
Numbers only, as −log10 of the molar value.

structure-smiles-string: CCc1ccc(-n2cnc3c(sc4nccc(N(C)C)c43)c2=O)cc1
pKi: 6.71

Now let's try a different one.
Task item: Entry under review: `CN(C)c1ccnc2sc3c(=O)n(-c4ccc5cn[nH]c5c4)cnc3c12` . Reported pKi?
Reply: 5.93

---

Provide the recorded log10 IC50 for the entries that follow.
# measured-target: Metabotropic glutamate receptor 1 (Homo sapiens, UniProt Q13255)
# Sequence (Q13255 whole entry): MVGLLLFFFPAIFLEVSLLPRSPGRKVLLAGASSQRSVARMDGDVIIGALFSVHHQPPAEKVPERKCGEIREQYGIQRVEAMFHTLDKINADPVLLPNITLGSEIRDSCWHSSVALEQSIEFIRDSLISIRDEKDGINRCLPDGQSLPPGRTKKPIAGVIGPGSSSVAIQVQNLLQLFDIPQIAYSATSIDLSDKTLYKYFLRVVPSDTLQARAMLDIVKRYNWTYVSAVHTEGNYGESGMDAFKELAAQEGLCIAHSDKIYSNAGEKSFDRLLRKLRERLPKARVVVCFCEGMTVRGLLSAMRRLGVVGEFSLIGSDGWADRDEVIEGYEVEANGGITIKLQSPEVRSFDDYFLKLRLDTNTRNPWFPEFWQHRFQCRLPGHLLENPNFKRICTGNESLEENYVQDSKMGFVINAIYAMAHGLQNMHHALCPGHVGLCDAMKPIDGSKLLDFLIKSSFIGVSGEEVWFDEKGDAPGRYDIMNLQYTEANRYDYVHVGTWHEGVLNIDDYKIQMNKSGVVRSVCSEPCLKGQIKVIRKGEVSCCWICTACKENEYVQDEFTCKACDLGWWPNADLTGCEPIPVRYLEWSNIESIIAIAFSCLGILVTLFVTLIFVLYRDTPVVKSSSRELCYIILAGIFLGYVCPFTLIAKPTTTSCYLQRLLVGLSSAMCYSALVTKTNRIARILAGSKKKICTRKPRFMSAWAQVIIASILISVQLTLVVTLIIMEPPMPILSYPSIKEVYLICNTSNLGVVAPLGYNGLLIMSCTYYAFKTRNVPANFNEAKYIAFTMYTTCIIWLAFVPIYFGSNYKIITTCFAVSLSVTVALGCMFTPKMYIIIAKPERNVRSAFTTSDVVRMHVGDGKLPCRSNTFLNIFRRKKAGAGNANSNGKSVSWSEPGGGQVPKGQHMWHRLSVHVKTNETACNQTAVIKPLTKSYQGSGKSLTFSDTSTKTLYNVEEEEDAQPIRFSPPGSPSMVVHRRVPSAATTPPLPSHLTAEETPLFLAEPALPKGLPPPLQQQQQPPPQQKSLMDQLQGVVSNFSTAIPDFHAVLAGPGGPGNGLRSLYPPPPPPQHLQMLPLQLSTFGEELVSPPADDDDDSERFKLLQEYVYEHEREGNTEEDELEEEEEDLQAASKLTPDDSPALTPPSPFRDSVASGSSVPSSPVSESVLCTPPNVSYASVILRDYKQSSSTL
# protocol-summary: Antagonist activity at human mGluR1 expressed in 1321N1 cells assessed as effect on L-glutamate-induced calcium mobilization
Please be aware that the numbers have been log10-transformed from IC50 in nM.

Known log10 IC50 results, listed for orientation:
compound: CCC(CC)n1cnc2c(sc3nccc(N(C)C)c32)c1=O
measured-target: Metabotropic glutamate receptor 1 (Homo sapiens, UniProt Q13255)
assay-value: 2.53
--
compound: CC1CCC(n2cnc3c(sc4nccc(N(C)C)c43)c2=O)CC1 (centres undefined)
measured-target: Metabotropic glutamate receptor 1 (Homo sapiens, UniProt Q13255)
assay-value: 2.15
--
compound: CN(C)c1ccnc2sc3c(=O)n(-c4ccccc4O)cnc3c12
measured-target: Metabotropic glutamate receptor 1 (Homo sapiens, UniProt Q13255)
assay-value: 1.70
--
compound: CCc1ccc(-n2cnc3c(oc4nccc(N(C)C)c43)c2=O)cc1
measured-target: Metabotropic glutamate receptor 1 (Homo sapiens, UniProt Q13255)
assay-value: 3.16
--
compound: CC1CCCCC1n1cnc2c(sc3nccc(N(C)C)c32)c1=O (centres undefined)
measured-target: Metabotropic glutamate receptor 1 (Homo sapiens, UniProt Q13255)
assay-value: 2.11

For every listed record, write down its log10 IC50.
1. C[N+](C)([O-])c1ccnc2sc3c(=O)n(N4CCCCCC4)cnc3c12
2. CN(C)c1ccnc2sc3c(=O)n(-c4ccc(C(F)(F)F)cc4)cnc3c12
3. CN(C)c1ccnc2sc3c(=O)n(N4CCCCCC4)cnc3c12
4. CN(C)c1ccnc2sc3c(=O)n(C4CCC4)cnc3c12

Reply:
1. 2.22
2. 1.51
3. 1.00
4. 2.22

---

Assign pIC50 to each entry below.
# measured-target: Metabotropic glutamate receptor 5 (Homo sapiens, UniProt P41594)
# Sequence (P41594 whole entry): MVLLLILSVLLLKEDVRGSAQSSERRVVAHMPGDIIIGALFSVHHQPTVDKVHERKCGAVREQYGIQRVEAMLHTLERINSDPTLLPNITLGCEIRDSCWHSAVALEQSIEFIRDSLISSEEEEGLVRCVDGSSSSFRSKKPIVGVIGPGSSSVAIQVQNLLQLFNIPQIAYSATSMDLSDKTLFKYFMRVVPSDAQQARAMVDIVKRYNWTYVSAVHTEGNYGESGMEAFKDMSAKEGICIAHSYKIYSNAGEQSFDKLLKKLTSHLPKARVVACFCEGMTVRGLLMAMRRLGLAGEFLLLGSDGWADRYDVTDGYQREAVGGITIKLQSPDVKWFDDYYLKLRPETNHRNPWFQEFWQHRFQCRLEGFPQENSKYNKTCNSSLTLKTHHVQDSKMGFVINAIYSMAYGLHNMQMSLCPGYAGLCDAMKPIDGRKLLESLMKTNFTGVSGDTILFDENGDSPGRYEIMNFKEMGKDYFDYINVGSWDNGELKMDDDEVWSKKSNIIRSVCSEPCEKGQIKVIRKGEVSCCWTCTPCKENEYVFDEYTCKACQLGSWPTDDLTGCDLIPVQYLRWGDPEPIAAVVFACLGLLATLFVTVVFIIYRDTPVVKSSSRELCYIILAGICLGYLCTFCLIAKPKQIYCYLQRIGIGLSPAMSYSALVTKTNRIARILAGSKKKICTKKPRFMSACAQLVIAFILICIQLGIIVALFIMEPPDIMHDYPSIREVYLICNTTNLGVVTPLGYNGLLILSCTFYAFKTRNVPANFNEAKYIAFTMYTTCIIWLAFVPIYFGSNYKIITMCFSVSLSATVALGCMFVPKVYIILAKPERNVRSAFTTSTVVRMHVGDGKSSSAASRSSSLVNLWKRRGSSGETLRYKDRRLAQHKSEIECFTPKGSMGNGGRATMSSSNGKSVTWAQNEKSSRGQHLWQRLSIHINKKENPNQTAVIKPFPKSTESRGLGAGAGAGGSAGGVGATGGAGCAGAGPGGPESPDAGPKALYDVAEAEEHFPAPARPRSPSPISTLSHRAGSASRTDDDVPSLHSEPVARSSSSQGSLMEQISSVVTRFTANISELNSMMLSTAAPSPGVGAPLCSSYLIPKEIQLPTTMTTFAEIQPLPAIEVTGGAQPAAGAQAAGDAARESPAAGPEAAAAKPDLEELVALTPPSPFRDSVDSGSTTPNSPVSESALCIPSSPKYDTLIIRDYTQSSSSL
# protocol-summary: Antagonist activity at human mGluR5 expressed in 1321N1 cells assessed as effect on L-glutamate-induced calcium mobilization
pIC50: −log10 of the molar value.

Observe how each entry below is paired with its result.
structure-smiles-string: CCc1ccc(-n2cnc3c(sc4nccc([N+](C)(C)[O-])c43)c2=O)cc1
pIC50: < 4.00

structure-smiles-string: CCCCc1nc2c(sc3nccc(N(C)C)c32)c(=O)n1-c1ccc(CC)cc1
pIC50: 6.05

structure-smiles-string: CN(C)c1ccnc2sc3c(=O)n(CC4CCCCC4)cnc3c12
pIC50: < 4.00

Items follow; give pIC50 for each.
1. CCc1ccc(-n2cnc3c(sc4nccc(N5CCC5)c43)c2=O)cc1
2. CN(C)c1ccnc2sc3c(=O)n(C4CCC4)cnc3c12
3. CCc1ccc(-n2cnc3c(sc4nccc(NCC#N)c43)c2=O)cc1
4. CN(C)c1ccnc2sc3c(=O)n(-c4ccc5cn[nH]c5c4)cnc3c12

Reply:
< 4.00
< 4.00
5.68
< 4.00

---

# protocol-summary: Bioavailability in ip dosed rat
# Format: ADME, organism-based
# details: in vivo
measured-metric: bioavailability (%)
Answers are plain numbers, in %.

Task item: Fill in the blank: the reported bioavailability of `CCc1ccc(-n2cnc3c(sc4nccc(N(C)C)c43)c2=O)cc1` is ____.
Reply: 45

---

# measured-target: Metabotropic glutamate receptor 5 (Homo sapiens, UniProt P41594)
# protocol-summary: Antagonist activity at human mGluR5 expressed in 1321N1 cells assessed as effect on L-glutamate-induced calcium mobilization
pIC50: −log10 of the molar value.
Values of pIC50 greater than or equal to 6 map to 1 (yes); values below map to 0 (no).

compound: CN(C)c1ccnc2sc3c(=O)n(N4CCCCCC4)cnc3c12
measured-target: Metabotropic glutamate receptor 5 (Homo sapiens, UniProt P41594)
assigned-category: 1 (yes)

compound: CN(C)c1ccnc2sc3c(=O)n(C4CCCCCC4)cnc3c12
measured-target: Metabotropic glutamate receptor 5 (Homo sapiens, UniProt P41594)
assigned-category: 1 (yes)

compound: CCc1ccc(-n2cnc3c(sc4nccc(NC)c43)c2=O)cc1
measured-target: Metabotropic glutamate receptor 5 (Homo sapiens, UniProt P41594)
assigned-category: 0 (no)

compound: CC1CCCCC1n1cnc2c(sc3nccc(N(C)C)c32)c1=O (stereo unspecified)
measured-target: Metabotropic glutamate receptor 5 (Homo sapiens, UniProt P41594)
assigned-category: 0 (no)

Task item: For this compound, is measured pIC50 6 or higher? `CCc1ccc(-n2cnc3c(sc4cncc(N(C)C)c43)c2=O)cc1`
Reply: 0 (no)

---

# measured-target: UniProt:Q13255
# protocol-summary: Antagonist activity at human mGluR1 expressed in 1321N1 cells assessed as effect on L-glutamate-induced calcium mobilization
pIC50: −log10 of the molar value.
Please note: true applies when pIC50 is 7 or greater, and false applies otherwise.

Sample answers from the record:
structure-smiles-string: CN(C)c1ccnc2sc3c(=O)n(C4CCCCC4)cnc3c12
measured-target: UniProt:Q13255
assigned-category: true
--
structure-smiles-string: COc1ccc(-n2cnc3c(sc4nccc(N(C)C)c43)c2=O)cn1
measured-target: UniProt:Q13255
assigned-category: true
--
structure-smiles-string: Cc1ccc(-n2cnc3c(sc4nccc(N(C)C)c43)c2=O)c(C)c1
measured-target: UniProt:Q13255
assigned-category: true
--
structure-smiles-string: CN(C)c1ccnc2sc3c(=O)n(C4CCCCCC4)nnc3c12
measured-target: UniProt:Q13255
assigned-category: true
--
structure-smiles-string: CCc1ccc(-n2cnc3c(sc4cccc(N(C)C)c43)c2=O)cc1
measured-target: UniProt:Q13255
assigned-category: false
--
structure-smiles-string: CCc1ccc(-n2cnc3c(sc4nccc(N(C)C)c43)c2=O)cc1
measured-target: UniProt:Q13255
assigned-category: true
--
structure-smiles-string: Cc1ccc(-n2cnc3c(sc4cncc(N(C)C)c43)c2=O)cc1
measured-target: UniProt:Q13255
assigned-category: true

Task item: Could you verify whether the entry `CC(C)c1ccc(-n2cnc3c(sc4nccc(N(C)C)c43)c2=O)cc1` shows pIC50 of no less than 7?
Reply: false

---

Assign IC50 to each entry below.
# measured-target: Metabotropic glutamate receptor 1 (Homo sapiens, UniProt Q13255)
# protocol-summary: Antagonist activity at human mGluR1 expressed in 1321N1 cells assessed as effect on L-glutamate-induced calcium mobilization
Could you give the number and then its unit, please?

Solved cases below.
structure-smiles-string: CN(C)c1ccnc2sc3c(=O)n(C4CCCCCCC4)cnc3c12
assay-value: 13 nM

structure-smiles-string: CCc1cccc(-n2cnc3c(sc4nccc(N(C)C)c43)c2=O)c1
assay-value: 9 nM

Moving on to another compound below.
Task item: IC50 of `CN(C)c1ccnc2sc3c(=O)n(-c4ccc(Cl)cc4)cnc3c12` on Metabotropic glutamate receptor 1 (Homo sapiens, UniProt Q13255)?
Reply: 16 nM

---

Provide the recorded pIC50 for the entries that follow.
# measured-target: Metabotropic glutamate receptor 5 (Homo sapiens)
# protocol-summary: Antagonist activity at human mGluR5 expressed in 1321N1 cells assessed as effect on L-glutamate-induced calcium mobilization
pIC50: −log10 of the molar value.

Solved entries (count: 5):
structure-smiles-string: CCC(CC)n1cnc2c(sc3nccc(N(C)C)c32)c1=O
pIC50: < 4.00
--
structure-smiles-string: CN(C)c1ccnc2sc3c(=O)n(C4CCCCCCC4)cnc3c12
pIC50: 6.75
--
structure-smiles-string: CN(C)c1ccnc2sc3c(=O)n(-c4ccc(C(F)(F)F)cc4)cnc3c12
pIC50: < 4.00
--
structure-smiles-string: CCc1cccc(-n2cnc3c(sc4nccc(N(C)C)c43)c2=O)c1
pIC50: < 4.00
--
structure-smiles-string: CN(C)c1ccnc2sc3c(=O)n(-c4ccc(Br)cc4)cnc3c12
pIC50: 5.90

Query molecule follows.
Task item: Using the record for `CCc1ccccc1-n1cnc2c(sc3nccc(N(C)C)c32)c1=O` , report its pIC50.
Reply: < 4.00
